# Lookup of reported growth keyed by entry
tested on: RXF 393 renal; assay: NCI-60 one-dose screen, 48 h (100 = growth as untreated, 0 = no growth, -100 = all killed); conditions: 10 µM
This is part of a sample that, as a whole, favours compounds with a hit. Of some 83,000 tested, about 20% had one in any assay.
Give just the number in %; leave the unit off.

COc1ccc(C2=NN(C(=O)c3ccc(S(C)(=O)=O)cc3)C(c3ccc(OC)c(OC)c3)C2)c(OC)c1 (stereo not given) :: 105
Cc1cc(Cc2cc(C)c(O)c(C)c2)cc(C)c1O :: 58.1
COc1cc(Cl)cc(-c2nn(-c3cccc(NC(=O)c4ccc(Cl)c(Cl)c4)c3)cc2-c2ccncc2)c1 :: 59.2
CSc1nn(-c2ccccc2)c2ncnc(Oc3ccccc3)c12 :: 83.6
O=C1OCC2=C1C(c1cccc(Cl)c1)c1cc3c(cc1N2CCO)CCC3 (stereo not given) :: 34.3
COc1cc(Nc2ccnc(NCCNc3ccnc4cc(Cl)ccc34)n2)cc(OC)c1 :: 46.2
O=C1c2ccc3c4c(ccc(c24)C(=O)N1CCNCc1ccccc1)C(=O)N(CCNCc1ccccc1)C3=O :: 90.5
CC(=O)CSC(C)=O :: 109

Recorded growth (compound COc1cc(-c2nc(Nc3nc4ccccc4s3)[nH]c(=O)c2C#N)cc(OC)c1O ): 105

Recorded growth (compound O=c1cc(-c2ccccc2)[nH]n1-c1nc2ccccc2[nH]1 ): 52.2

These data points were gathered from PubChem BioAssay (NCI).
